B1: glmS ribozyme (parent)
chain: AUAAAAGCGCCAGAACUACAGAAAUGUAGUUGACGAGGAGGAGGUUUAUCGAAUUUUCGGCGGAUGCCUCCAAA

# Variants of: B1
# Experiment notes: self-cleavage kobs at 640 uM GlcN6P; higher = faster cleavage; RNA array
# Test conditions: with glucosamine-6-phosphate
Fewer inactive variants are shown than the library holds.
Rule: condition met for self-cleavage kobs at 640 uM GlcN6P not less than 0.0003 s⁻¹, condition not met for anything less.

| Mutant | Group label |
| --- | --- |
| C11U U30C G43A | condition not met |
| C11U A33U A53C | condition not met |
| G35U U47A | condition not met |
| G7C A39C G40C G44U | condition not met |
| C61G C68U U69A | condition not met |
| C34G G40U G41A C58U | condition not met |
| U46A G51C | condition not met |
| G9A G29U A36C | condition not met |
| G41U U69G | condition not met |
| C16A A39U U54C | condition not met |
| A14U A15G G43C | condition not met |
| A6G U55G G66C C70A | condition met |
| A14U G35A A64G | condition not met |
| A33U G43A A48U C61U C70U | condition not met |
| C11U C61A G63C | condition not met |
| A42C U49C C58U | condition not met |
| G44U | condition not met |
| A12U G13U | condition not met |
| C11A C70A | condition not met |
| A14G G40A | condition met |
| A39G U46G A53C | condition met |
| A14U C16A G35C G43C A53C C61U | condition not met |
| G32U A42C | condition not met |
| U47C G66C | condition not met |
| U30G G62U | condition not met |
| G38C G44U C50U | condition not met |
| A4C G32U U47G | condition not met |
| C34A G44C C58U | condition not met |
| U55G G66C C70U | condition met |
| A12C U47A | condition met |
| G13U C16G G29A A39G | condition not met |
| A14U C50U G51U | condition not met |
| G51C C67G C70U | condition not met |
| U30G U55G C68U | condition met |
| C50G A52U C70U | condition not met |
| C50U U54A C70U | condition not met |
| C8U A15C A33U G37C C71G | condition not met |
| G43U C61A | condition not met |
| A15G G63A | condition not met |
| G29A U55A | condition met |
| C16A G32C | condition not met |
| C8U G9A | condition not met |
| G37A U47A | condition not met |
| C11A G37C U65G | condition not met |
| G51U A53U C58A C70A | condition not met |
| A14G A36C G40C G51C | condition not met |
| A42C G43U A48G G62C C67A C70G | condition not met |
| U31G A36C U49G | condition not met |
| A39U U46G C50U U54C | condition not met |
| A12U G37A G40C | condition not met |
| C16U | condition met |
| G7U A12U C67U | condition not met |
| A12G G32C C71A | condition not met |
| U47G C67U | condition met |
| C16A G51U U69G | condition not met |
| A15C U55C | condition met |
| A36G A53G | condition not met |
| C68U C71G | condition not met |
| C34G A42C A52U C58U U65G | condition not met |
| G29U A48U C61U | condition not met |
| C11G U30A A33C | condition not met |
| U57C C61U G63A | condition not met |
| G41A C71A | condition not met |
| C61U C71A | condition not met |
| A15G G66U | condition met |
| A6C G13C U47G A48U U65A | condition not met |
| U31A G41A | condition not met |
| A6U C34A | condition not met |
| G44C A52G | condition not met |
| U30G U57C G62C | condition not met |
| G26U U54A | condition met |
| G29C U56A C71A | condition not met |
| G38A A48C | condition not met |
| G37A G38U U55C | condition not met |
| A36C C68G | condition not met |
| G7A U69G | condition not met |
| G9A A42C G44A | condition not met |
| C8U U56A | condition not met |
| G38A G44U C50A | condition not met |
| G35U A42G | condition not met |
| U56A | condition met |
| U45A U69G | condition not met |
| G13C U30C | condition not met |
